Entries annotated with measured protein stability index
B1: CLPTM1 (parent)
chain: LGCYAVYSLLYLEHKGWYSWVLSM

Variants of: B1
experiment: protein stability index of a GFP-peptide fusion (GPS, HEK-293T) (PSI 1-6); higher = more stable;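 further: lentivirally expressed fusions sorted by FACS into six bins by GFP to DsRed ratio, PSI derived from sequencing read proportions per bin multiplied by bin number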
condition-info: c terminus: a fixed tail appended
The answer should be written as a number, with no unit following it.

Below are worked cases with known answers.
• L1G = 2.73
• G2F = 2.72
• Y11K = 2.63
• H14Q = 3.42
• W17P = 2.44
• S23G = 2.17
• M24P = 3.83
• L1W = 2.96
• L9W = 2.7
• L10P = 2.45

Q: # input variant: K15I ; wanted: its protein stability index
Ans: 2.89

Q: # input variant: L10G ; wanted: its protein stability index
Ans: 3.1

Q: # input variant: L1E ; wanted: its protein stability index
Ans: 3.05

Where these numbers come from: the supplement of paper PMC10567573
